target: canine TRPM8 (Canis lupus familiaris); assay: In Vitro Canine TRPM8 Functional Assay (Ca2+ fluorescence, icilin activation); assay type: cell-based; details: compound at 0.2 μM; canine TRPM8, icilin activation; read-out: % Inh @ 0.2
ASSAY ENDPOINT: inhibition at 0.2 µM (%)

INSERT INTO measurements (item_smiles, assay_endpoint, obs_value) VALUES
  ('O=S(=O)(c1ccc(O)cc1)N(Cc1ccc(F)c(C(F)(F)F)c1)c1sc2ccccc2c1Cl', 'inhibition at 0.2 µM', 92),
  ('O=C1CCC(=O)N1CCN(c1sc2ccccc2c1Br)S(=O)(=O)c1ccccc1', 'inhibition at 0.2 µM', 62),
  ('Cc1c(N(Cc2ccc(F)c(C(F)(F)F)c2)S(=O)(=O)CCCC(C)(C)O)sc2ccccc12', 'inhibition at 0.2 µM', 101),
  ('Cc1c(N(Cc2ccc(F)c(C(F)(F)F)c2)S(=O)(=O)CCC(C)(C)O)sc2ccccc12', 'inhibition at 0.2 µM', 102),
  ('COC(=O)[C@H](C)CN(c1sc2ccccc2c1Br)S(=O)(=O)c1ccccc1', 'inhibition at 0.2 µM', 102);

(a) O=C(O)c1ccc(S(=O)(=O)N(CCCC(F)(F)F)c2sc3ccccc3c2Br)cc1
(b) CCCCN(c1sc2ccccc2c1Br)S(=O)(=O)NC
# input // which entry reports the smaller inhibition at 0.2 µM, a or b ? Refer to your chosen entry by its label in the reply.
# output b

(I) Cc1c(N(Cc2ccc(F)c(C(F)(F)F)c2)S(=O)(=O)c2ccc3ncsc3c2)sc2ccccc12
(II) Cc1c(N(Cc2ccc(F)c(C(F)(F)F)c2)S(=O)(=O)C(F)(F)F)sc2ccccc12
# input // which entry reports the smaller inhibition at 0.2 µM, I or II ? Refer to your chosen entry by its label in the reply.
# output II
(II: 53.1%, I: 97%)

###

molecular target: canine TRPM8 (Canis lupus familiaris, UniProt Q1A7N1); experiment: In Vitro Canine TRPM8 Functional Assay (Ca2+ fluorescence, icilin activation); type: cell-based; conditions: HEK293 cells stably expressing canine TRPM8; icilin activation; eight-point dose-response; read-out: IC50
Sequence (Q1A7N1 1-1104): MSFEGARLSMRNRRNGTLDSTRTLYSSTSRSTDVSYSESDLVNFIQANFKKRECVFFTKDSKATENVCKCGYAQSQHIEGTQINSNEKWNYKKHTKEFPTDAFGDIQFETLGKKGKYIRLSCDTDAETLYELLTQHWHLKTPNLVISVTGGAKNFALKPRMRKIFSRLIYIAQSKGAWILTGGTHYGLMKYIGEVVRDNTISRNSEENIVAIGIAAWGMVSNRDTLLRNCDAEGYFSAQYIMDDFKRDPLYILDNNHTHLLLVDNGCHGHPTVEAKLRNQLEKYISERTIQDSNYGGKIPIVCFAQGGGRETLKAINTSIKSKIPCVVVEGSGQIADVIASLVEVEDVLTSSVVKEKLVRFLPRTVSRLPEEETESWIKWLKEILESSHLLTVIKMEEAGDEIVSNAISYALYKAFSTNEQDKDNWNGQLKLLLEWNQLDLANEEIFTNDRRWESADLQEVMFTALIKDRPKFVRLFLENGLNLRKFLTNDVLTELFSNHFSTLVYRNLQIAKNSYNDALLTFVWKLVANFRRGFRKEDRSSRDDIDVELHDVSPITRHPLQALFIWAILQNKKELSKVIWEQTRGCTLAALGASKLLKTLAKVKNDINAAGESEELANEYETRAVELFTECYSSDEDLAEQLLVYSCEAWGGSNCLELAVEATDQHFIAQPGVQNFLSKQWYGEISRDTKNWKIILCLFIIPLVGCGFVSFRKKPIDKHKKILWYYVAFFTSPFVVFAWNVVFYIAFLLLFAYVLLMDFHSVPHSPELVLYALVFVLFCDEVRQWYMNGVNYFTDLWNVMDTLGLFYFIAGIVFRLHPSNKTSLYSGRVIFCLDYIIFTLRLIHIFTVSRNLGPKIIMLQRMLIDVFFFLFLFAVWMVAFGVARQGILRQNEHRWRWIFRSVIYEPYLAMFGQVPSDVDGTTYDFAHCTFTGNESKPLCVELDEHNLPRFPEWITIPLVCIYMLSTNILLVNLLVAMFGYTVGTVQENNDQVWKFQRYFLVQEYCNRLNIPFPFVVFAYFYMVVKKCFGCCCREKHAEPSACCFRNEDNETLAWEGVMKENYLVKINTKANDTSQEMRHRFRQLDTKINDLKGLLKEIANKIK
pIC50: −log10 of the molar value.
ASSAY ENDPOINT: pIC50

// below: answered compounds
INSERT INTO measurements (compound, obs_value) VALUES
  ('Cc1c(N(CCCCC(F)(F)F)S(=O)(=O)c2ccccc2)sc2ccccc12', 8.13),
  ('O=S1NC(c2ccc(S(=O)(=O)N(CCCCC(F)(F)F)c3sc4ccccc4c3Br)cc2)=NO1 (centres unmarked)', 7.60);

(P) O=S(=O)(c1ccc(-c2nnn[nH]2)cc1)N(CCC1CC1)c1sc2ccccc2c1Cl
(Q) COC(=O)c1ccc(S(=O)(=O)N(CCCCC(F)(F)F)c2sc3ccccc3c2C)cc1
(R) CCCCN(c1sc2ccccc2c1Cl)S(=O)(=O)c1ccc(C(=O)O)cc1
# input List from greatest to least pIC50. List the labels, following the order given in the request.
# output P, R, Q
(P: 8.13, R: 7.92, Q: 7.58)

###

biological target: UniProt:Q1A7N1; assay: In Vitro Canine TRPM8 Functional Assay (Ca2+ fluorescence, icilin activation); format: cell-based; settings: compound at 0.2 μM; canine TRPM8, icilin activation
Here the recorded % Inh @ 0.2 (μM) is given for each entry.
# number only, unit % dropped from output

INSERT INTO measurements (compound, assayed_target, assay_endpoint, obs_value) VALUES
  ('O=S(=O)(c1ccccc1)N(Cc1ccc(F)c(C(F)(F)F)c1)c1sc2ccccc2c1CN1CCCC1', 'UniProt:Q1A7N1', '% Inh @ 0.2 (μM)', 20),
  ('CCCCN(c1sc2ccccc2c1C(C)(C)O)S(=O)(=O)c1ccc(C(C)(C)O)cc1', 'UniProt:Q1A7N1', '% Inh @ 0.2 (μM)', 96),
  ('O=S1NC(c2ccc(S(=O)(=O)N(CCC(F)(F)F)c3cc4ccccc4s3)cc2)=NO1 (centres unmarked)', 'UniProt:Q1A7N1', '% Inh @ 0.2 (μM)', 17),
  ('O=C(O)c1ccc(S(=O)(=O)N(CCC2CC2)c2cc3ccccc3s2)c(F)c1', 'UniProt:Q1A7N1', '% Inh @ 0.2 (μM)', 100),
  ('CC(C)(O)c1c(N(Cc2ccc(OC(F)(F)F)cc2)S(=O)(=O)c2ccc(C(=O)[O-])cc2)sc2ccccc12.[Na+]', 'UniProt:Q1A7N1', '% Inh @ 0.2 (μM)', 102);

# input Data request, read-out % Inh @ 0.2 (μM), for COc1ccc(S(=O)(=O)N(Cc2ccc(F)c(C(F)(F)F)c2)c2sc3ccccc3c2C)c2cccnc12
# output 92

# input Okay, and Cc1c(N(CCC(F)(F)F)S(=O)(=O)c2ccc(C3=NOS(=O)N3)cc2)sc2ccccc12 (centres unmarked) ?
# output 101

# input Okay, and CCCCN(c1sc2ccccc2c1C)S(=O)(=O)c1ccc(C(=O)[O-])cc1.[Na+] ?
# output 101

# input Okay, and CCCCN(c1sc2ccccc2c1Br)S(=O)(=O)c1ccc(N2CCOCC2)cc1 ?
# output 104.59

# input Okay, and O=C(O)c1ccc(S(=O)(=O)N(CCC(F)(F)F)c2cc3ccccc3s2)c(F)c1 ?
# output 84

# input Okay, and O=S(=O)(c1ccc(-c2nnn[nH]2)cc1)N(CCCC(F)(F)F)c1sc2ccccc2c1Br ?
# output 93

###

biological target: canine TRPM8 (Canis lupus familiaris, UniProt Q1A7N1); test: In Vitro Canine TRPM8 Functional Assay (Ca2+ fluorescence, icilin activation); format: cell-based; settings: 0.2 μM compound; HEK293 cells stably expressing canine TRPM8, icilin activation; read-out: % Inh @ 0.2
ASSAY ENDPOINT: inhibition at 0.2 µM (%)

INSERT INTO measurements (compound, assayed_target, obs_value) VALUES
  ('Cc1c(N(Cc2ccc(OC(F)(F)F)cc2)S(=O)(=O)CCC(C)(C)O)sc2ccccc12', 'canine TRPM8 (Canis lupus familiaris, UniProt Q1A7N1)', 101),
  ('Cc1c(N(Cc2ccc(OC(F)(F)F)cc2)S(=O)(=O)CCC(=O)O)sc2ccccc12', 'canine TRPM8 (Canis lupus familiaris, UniProt Q1A7N1)', 100),
  ('Cc1c(N(Cc2ccccc2)S(=O)(=O)c2ccc(F)c(F)c2)sc2ccccc12', 'canine TRPM8 (Canis lupus familiaris, UniProt Q1A7N1)', 89),
  ('O=S(=O)(c1cc(Br)ccc1Br)N(Cc1ccc(F)c(F)c1)c1sc2ccccc2c1CO', 'canine TRPM8 (Canis lupus familiaris, UniProt Q1A7N1)', 87),
  ('CCCCNS(=O)(=O)N(CCCC)c1cc2ccccc2s1', 'canine TRPM8 (Canis lupus familiaris, UniProt Q1A7N1)', 28),
  ('Cc1c(N(Cc2ccc(OC(F)(F)F)cc2)S(=O)(=O)c2ccc(N3CCOCC3)cc2)sc2ccccc12', 'canine TRPM8 (Canis lupus familiaris, UniProt Q1A7N1)', 102),
  ('O=S(=O)(c1ccccc1)N(Cc1ccc(F)c(C(F)(F)F)c1)c1sc2ncccc2c1Cl', 'canine TRPM8 (Canis lupus familiaris, UniProt Q1A7N1)', 90),
  ('C=C(C)c1c(N(Cc2cc(F)c(F)c(OC)c2F)S(=O)(=O)CC)sc2ccccc12', 'canine TRPM8 (Canis lupus familiaris, UniProt Q1A7N1)', 101),
  ('COC(C)c1c(N(CCCF)S(=O)(=O)c2ccccc2)sc2ccccc12 (centres unmarked)', 'canine TRPM8 (Canis lupus familiaris, UniProt Q1A7N1)', 97),
  ('CCS(=O)(=O)N(Cc1ccc(F)c(C(F)(F)F)c1)c1sc2ccccc2c1C(C)OC (centres unmarked)', 'canine TRPM8 (Canis lupus familiaris, UniProt Q1A7N1)', 101);

(P) CCS(=O)(=O)N(Cc1ccnc(F)c1)c1sc2ccccc2c1C
(Q) CCCCNS(=O)(=O)N(CCCC)c1sc2ccccc2c1Br
# input // which entry reports the smaller inhibition at 0.2 µM, P or Q ? Refer to your chosen entry by its label in the reply.
# output Q

###

target: canine TRPM8 (Canis lupus familiaris); experiment: In Vitro Canine TRPM8 Functional Assay (Ca2+ fluorescence, icilin activation); type: cell-based; settings: compound at 0.2 μM; canine TRPM8, icilin activation; read-out: % Inh @ 0.2
ASSAY ENDPOINT: inhibition at 0.2 µM (%)

INSERT INTO results (molecule, unit_symbol, obs_value) VALUES
  ('CN(C)S(=O)(=O)N(CCOC(C)(C)C)c1sc2ccccc2c1Br [Compound 267]', '%', 96);

(P) Cc1c(N(Cc2ccc(F)c(C(F)(F)F)c2)S(=O)(=O)c2cccc(-c3nnn[nH]3)c2)sc2ccccc12 [Compound 455]
(Q) CN(C)CCN(c1sc2ccccc2c1Br)S(=O)(=O)c1ccc(C(=O)O)cc1 [Compound 441]
# input # returns the entry with the larger inhibition at 0.2 µM; inputs P and Q Refer to your chosen entry by its label in the reply.
# output P
(P: 101%, Q: 37%)
